# Experimental System: Na^+,K^+ -ATPase (Canis lupus familiaris)
# Construct: Na^+,K^+ -ATPase receptor purified according to Jorghensen; from tissue
# Procedure Details: displacement of the specific 3H-ouabain binding from the purified Na+,K+-ATPase receptor
Assay Metric: pIC50
Reminder that pIC50 means the negative base-10 logarithm of the concentration expressed in mol/L.

Answered cases to consult:
CCC(/C=N/NC(=N)N)=C\[C@H]1CC[C@]2(O)[C@@H]3CC[C@@H]4C[C@@H](O)CC[C@]4(C)[C@H]3CC[C@]12C [Comp. I-al] = 6.90
CC(/C=N/NC(=N)NCCN(C)C)=C\[C@H]1CC[C@]2(O)[C@@H]3CC[C@@H]4C[C@@H](O)CC[C@]4(C)[C@H]3CC[C@]12C [Comp. I-ae] = 6.30
CCC(/C=N/OCCN(C)C)=C\[C@H]1CC[C@]2(O)[C@@H]3CC[C@@H]4C[C@@H](O)CC[C@]4(C)[C@H]3CC[C@]12C [Comp. I-ao] = 6.90
CCC(/C=N/OCCCN(C)C)=C\[C@H]1CC[C@]2(O)[C@@H]3CC[C@@H]4C[C@@H](O)CC[C@]4(C)[C@H]3CC[C@]12C [Comp. I-ap] = 6.70
CC(/C=N/OCCN)=C\[C@H]1CC[C@]2(O)[C@@H]3CC[C@@H]4C[C@H](O)CC[C@]4(C)[C@H]3CC[C@]12C [Comp. I-bc] = 6.30

Data request, read-out pIC50, for CC(/C=N/OCCNC(=N)N)=C\[C@H]1CC[C@]2(O)[C@@H]3CC[C@@H]4C[C@@H](O)CC[C@]4(C)[C@H]3CC[C@]12C [Comp. I-aj]
7.30

Also check CC(/C=N/NC(=N)N)=C\[C@H]1CC[C@]2(O)[C@@H]3CC[C@@H]4C[C@@H](OCCCN5CCCC5)CC[C@]4(C)[C@H]3CC[C@]12C [Comp. I-av]
7.30

Also check CC(/C=N/OCCN)=C\[C@H]1CC[C@]2(O)[C@@H]3CC[C@@H]4C[C@H](OCCN5CCCC5)CC[C@]4(C)[C@H]3CC[C@]12C [Comp. I-bd]
6.30

---

The entries below come with measured IC50 values attached.
# Experimental System: Na^+,K^+ -ATPase (Canis lupus familiaris, UniProt P50997)
# Construct: Na^+,K^+ -ATPase receptor purified according to Jorghensen; from tissue
# Procedure Details: inhibition of the activity of the purified Na+,K+-ATPase (% hydrolysis of 32P-ATP)
# Format: biochemical
# Condition Info: purified Na+,K+-ATPase, 32P-ATP hydrolysis; read-out: Inhibitory Activity log IC50 (converted)
# Description: To test the affinity for the receptor site of the Na^+,K^+ -ATPase and the agonist or antagonist activity on the enzyme, the following tests were used: b) inhibition of the activity of the purified Na^+,K^+ -ATPase measured as % of hydrolysis of ^32 P-ATP in presence and in absence of the tested compound (Doucet A. et al. Am. J. Physiol., 1986, 251, F851)
Return type: number; implicit unit nM.

Answered cases to consult:
CC(/C=N/NC(=N)N)=C\[C@H]1CC[C@]2(O)[C@@H]3CC[C@@H]4C[C@@H](OCCCN5CCCC5)CC[C@]4(C)[C@H]3CC[C@]12C [Comp. I-av] = 200
CC(/C=N/NC(=N)N)=C\[C@H]1CC[C@]2(O)[C@@H]3CC[C@@H]4C[C@@H](OCCN5CCCC5)CC[C@]4(C)[C@H]3CC[C@]12C [Comp. I-at] = 158

Data request, read-out IC50, for CC(/C=N/OCCN)=C\[C@H]1CC[C@]2(O)[C@@H]3CC[C@@H]4C[C@@H](OCCN)CC[C@]4(C)[C@H]3CC[C@]12C [Comp. I-ay]
31.6

Also check CC(/C=N/NC(=N)N)=C\[C@H]1CC[C@]2(O)[C@@H]3CC[C@@H]4C[C@@H](OCCCN)CC[C@]4(C)[C@H]3CC[C@]12C [Comp. I-az]
31.6

Also check CC(/C=N/OCCN)=C\[C@H]1CC[C@]2(O)[C@@H]3CC[C@@H]4C[C@@H](OCCCN)CC[C@]4(C)[C@H]3CC[C@]12C [Comp. I-ba]
39.8

Also check CC(/C=N/OCCN)=C\[C@H]1CC[C@]2(O)[C@@H]3CC[C@@H]4C[C@@H](OCCN5CCCC5)CC[C@]4(C)[C@H]3CC[C@]12C [Comp. I-au]
39.8

Also check CCC(/C=N/OCCCN)=C\[C@H]1CC[C@]2(O)[C@@H]3CC[C@@H]4C[C@@H](O)CC[C@]4(C)[C@H]3CC[C@]12C [Comp. I-an]
316

---

# Experimental System: Na^+,K^+ -ATPase (Canis lupus familiaris, UniProt P50997)
# Construct: Na^+,K^+ -ATPase receptor purified according to Jorghensen; from tissue
# Procedure Details: inhibition of the activity of the purified Na+,K+-ATPase (% hydrolysis of 32P-ATP)
# Type: biochemical
pIC50: −log10 of the molar value.
The label depends only on pIC50: met if it is at least 6, not met if it is smaller.

Solved cases below.
CC(/C=N/NC(=N)N)=C\[C@H]1CC[C@]2(O)[C@@H]3CC[C@@H]4C[C@H](O)CC[C@]4(C)[C@H]3CC[C@]12C = not met
CC(/C=N/OCCN)=C\[C@H]1CC[C@]2(O)[C@@H]3CC[C@@H]4C[C@H](OCCN5CCCC5)CC[C@]4(C)[C@H]3CC[C@]12C = not met
CC(/C=N/OCCCNC(=N)N)=C\[C@H]1CC[C@]2(O)[C@@H]3CC[C@@H]4C[C@@H](O)CC[C@]4(C)[C@H]3CC[C@]12C = met

Given CC(/C=N/NC1=NCCN1C)=C\[C@H]1CC[C@]2(O)[C@@H]3CC[C@@H]4C[C@@H](O)CC[C@]4(C)[C@H]3CC[C@]12C , state whether its pIC50 is at least 6.
not met

Also check CC(/C=N/NC(=N)NCCN(C)C)=C\[C@H]1CC[C@]2(O)[C@@H]3CC[C@@H]4C[C@@H](O)CC[C@]4(C)[C@H]3CC[C@]12C
not met

---

# Experimental System: Na^+,K^+ -ATPase (Canis lupus familiaris, UniProt P50997)
# Construct: Na^+,K^+ -ATPase receptor purified according to Jorghensen; from tissue
# Procedure Details: displacement of the specific 3H-ouabain binding from the purified Na+,K+-ATPase receptor
The entries below come with measured IC50 values attached.
Return type: number; implicit unit nM.

Answered cases to consult:
CCC(/C=N/OCCCN)=C\[C@H]1CC[C@]2(O)[C@@H]3CC[C@@H]4C[C@@H](O)CC[C@]4(C)[C@H]3CC[C@]12C = 100
CC(/C=N/OCCN)=C\[C@H]1CC[C@]2(O)[C@@H]3CC[C@@H]4C[C@H](OCCCN)CC[C@]4(C)[C@H]3CC[C@]12C = 631
CC(/C=N/NC(=N)N)=C\[C@H]1CC[C@]2(O)[C@@H]3CC[C@@H]4C[C@@H](OCCN5CCCC5)CC[C@]4(C)[C@H]3CC[C@]12C = 39.8

Now, please, on to the next molecule.
Data request, read-out IC50, for CC(/C=N/NC(=N)N)=C\[C@H]1CC[C@]2(O)[C@@H]3CC[C@@H]4C[C@H](O)CC[C@]4(C)[C@H]3CC[C@]12C
631
